# HisTag MFI Ratio (background 0.44) listing for each entry below
target: T1, nfP2X7 CAR 1; test: flow cytometry, anti-His-FITC, MFI on EGFR+ (CAR+) T cells over background 0.44
T1 construct: CAR-positive cells gated by the co-expressed EGFR marker; also called nfP2X7 targeted CAR; nfP2X7 CAR on EGFR+ T cells

binder	observed_value
CD19 BRIDGE variant B26 (Fab, V domains shown) VH: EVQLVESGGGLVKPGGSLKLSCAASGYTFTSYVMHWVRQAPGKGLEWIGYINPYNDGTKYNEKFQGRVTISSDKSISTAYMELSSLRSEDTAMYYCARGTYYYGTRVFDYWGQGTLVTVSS VL: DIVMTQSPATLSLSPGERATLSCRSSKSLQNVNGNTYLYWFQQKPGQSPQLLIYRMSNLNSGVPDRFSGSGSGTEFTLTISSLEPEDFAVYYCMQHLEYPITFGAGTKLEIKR	4.9

[ask] For the binder shown here, CD19 BRIDGE variant B2 (Fab, V domains shown) VH: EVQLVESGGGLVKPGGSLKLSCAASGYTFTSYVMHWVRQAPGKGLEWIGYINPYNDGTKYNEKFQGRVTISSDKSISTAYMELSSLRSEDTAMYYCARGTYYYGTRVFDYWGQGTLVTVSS VL: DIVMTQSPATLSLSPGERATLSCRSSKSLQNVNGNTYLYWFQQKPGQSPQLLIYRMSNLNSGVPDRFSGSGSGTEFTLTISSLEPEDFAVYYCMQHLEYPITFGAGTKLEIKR , give the reported HisTag MFI Ratio (background 0.44).
[reply] 4.7
